Reference source for all entries: PubChem BioAssay (NCI)

# Tested on: SF-295 CNS
# MEASUREMENT_NOTES: NCI-60 one-dose screen, 48 h (100 = growth as untreated, 0 = no growth, -100 = all killed)
# MEASUREMENT_PARAMETERS: 10 µM unless noted
The panel holds about 83,000 compounds, 20% with a hit somewhere; the sample as a whole holds those more often.
The entries below come with measured growth values attached.
Note: unit % is implicit; provide only the numeric part.

Below are worked cases with known answers.
>>> test_value("CC(O)CN(CC(C)O)N(CC(C)O)CC(C)O (stereo not drawn)")
101
>>> test_value("Cc1ccc(NC(=O)CCl)cc1Cl")
81.2
>>> test_value("COc1ccc(/C=C/C(=O)/C=C/c2cc3ccccc3[nH]c2=O)cc1")
104
>>> test_value("CSc1nc(N)n2nccc2n1")
95.7
>>> test_value("N#Cc1c2ncccc2c2nnc3cc(Cl)c(Cl)cc3n12")
105
>>> test_value("COc1cc(OC)c2c(=O)cc(-c3ccccc3)oc2c1")
93.8
>>> test_value("CCCCCCCCCc1cc[n+](CC(=O)c2ccc([N+](=O)[O-])cc2)cc1")
9.4
>>> test_value("Cc1ccc(S(=O)(=O)Nc2cccc(Cn3c(=O)[nH]c4ccc(Oc5ncccn5)cc4c3=O)c2)cc1")
74.4

Looking for the measured growth of CCCCCCCCCC(C)NC(=O)CCl (stereo not drawn) , can you help?
99.8

Looking for the measured growth of CC(C)(C)C(=O)OCOP(=O)(OCOC(=O)C(C)(C)C)C1CC(O)N(O)C1=O (stereo not drawn) , can you help?
67

Looking for the measured growth of COc1cc(-c2nn(-c3ccc(NC(=O)c4cc(Cl)cc(Cl)c4)cc3)cc2-c2ccncc2)ccc1Cl , can you help?
-1.01

Looking for the measured growth of Clc1ccc(N/N=C(\c2ccccc2)c2ccccn2)nc1 , can you help?
1.66

Looking for the measured growth of COc1cc(N)c2nccc(C)c2c1OC , can you help?
116

Looking for the measured growth of c1ccc2[nH]c(-c3ccc(OCCCCCOc4ccc(-c5nc6ccccc6[nH]5)cc4)cc3)nc2c1 , can you help?
53

Looking for the measured growth of CCOC(=O)C1=C(C(F)(F)F)NC(=S)NC1CN1C(=O)c2ccccc2C1=O (stereo not drawn) , can you help?
93

Looking for the measured growth of COC(=O)c1ccc2[nH]c(O)c(C(=Nc3ccc(N(C)C(=O)CN4CCN(C)CC4)cc3)c3ccc(N)cc3)c2c1 , can you help?
99.1

Looking for the measured growth of C/C(=N\Nc1cccc(Cl)n1)c1ccccn1 , can you help?
0.34

Looking for the measured growth of CCCCCCCCCCCCc1ccc([N+](CC)(CC)CC)cc1 , can you help?
48.9

----------
# Tested on: OVCAR-5 ovarian
# MEASUREMENT_NOTES: NCI-60 one-dose screen, 48 h
# MEASUREMENT_PARAMETERS: 10 µM unless noted
The panel holds about 83,000 compounds, 20% with a hit somewhere; the sample as a whole holds those more often. Active and inactive are the calls of the source. Rule for the calls: active = growth percent below 10; inactive = the rest.
Outcomes you can answer with include only these: active, inactive

>>> group_label("COc1ccc(OC)c(Cn2cc3c(c2)-c2oncc2CC3)c1")
"inactive"
>>> group_label("O=C1/C(=N\\c2cc(=O)[nH]n2S(=O)(=O)c2ccccc2)Nc2ccccc21")
"inactive"
>>> group_label("NC(N)=Nc1ccc(/C=C2\\C=Cc3ccccc32)cc1")
"inactive"

# lookup: test call for O=C(Nc1ccccc1)Nc1ccc(Nc2ncnc3sc4c(c23)CCCC4)cc1
inactive

# lookup: test call for C/C=C(/C)C(=O)OC1C=C(CO)C(=O)C(OC(=O)/C(C)=C\C)C1C(C)C (stereo unspecified)
active

# lookup: test call for Cc1cc2cn3c4ccc(O)cc4[nH]c(=O)c3c2cc1C
inactive
